Can you tell me GI50 for the items I'm about to list?
Tested on: RXF 393
Experiment: NCI tumour cell line growth inhibition, 48 h
Calls of active or inactive are those of the source. Rule as the data show it: active = GI50 up to about 1.1 µM and inactive = higher.

The cases that follow already have their GI50 on record.
> print(dat)
                                   compound  testedtarget        measuredvalue
1       O=C(O)CNS(=O)(=O)c1ccc(NC(=O)CI)cc1       RXF 393   15.5 µM (inactive)
2  COc1cc(-c2coc3c(OC)c(OC4OC(COC5OC(C)C(O)C(O)C5O)C(O)C(O)C4O)c(OC)c(O)c3c2=O)cc(C)c1O (centres undefined)       RXF 393     13 µM (inactive)
3  Cn1c2ccccc2c(=S)c2cc(NC(=O)CCCCC(=O)Nc3ccc4c(c3)c(=S)c3ccccc3n4C)ccc21       RXF 393  > 100 µM (inactive)

Query compound follows.
Lookup result for CCOc1ccc(-n2c(=O)c3nn4c(=O)n(-c5ccc(OCC)cc5)c(=O)c4nn3c2=O)cc1 ; measured GI50: 44.6 µM (inactive)
